Tested on: MIA-PaCa-2 pancreatic cancer cell line (KRAS G12C)
Test: Cell proliferation assay (CellTiter 96 Aqueous One)
Type: cell-based
Conditions: Homo sapiens, MIA PaCa-2, MIA PaCa-2
Measured IC50 by item

| compound | metric name | result |
| --- | --- | --- |
| COc1cc(Nc2nc(-c3nccn3C)nc3sc(-c4ccn(C(C)C)n4)c(C)c23)ccn1 | IC50 | 5 to 10 µM |
| Cc1c(-c2ccn(C(C)C)n2)sc2nc(-c3nccn3C)nc(NCCc3cn(C)cn3)c12 | IC50 | 5 to 10 µM |
| COCCn1ccnc1-c1nc(O)c2scc(-c3ccncc3)c2n1 | IC50 | 5 to 10 µM |
| COCCCn1ccnc1-c1nc(O)c2scc(-c3ccccn3)c2n1 | IC50 | 1 to 4.99 µM |
| Cn1ccc(-c2nc(O)c3scc(-c4ccccn4)c3n2)n1 | IC50 | > 10 µM |
| CO[C@H]1CCCN(c2nc(-c3nccn3C)nc3sc(-c4ccn(C(C)C)n4)c(C)c23)C1 | IC50 | 5 to 10 µM |

Using the record for CO[C@@H]1CC[C@@H](Nc2nc(-c3nccn3C)nc3sc(-c4ccn(C(C)C)n4)c(C)c23)C1 (racemic) , report its IC50.
1 to 4.99 µM

Also COCC1CCN(c2nc(-c3nccn3C)nc3sc(-c4ccn(C(C)C)n4)c(C)c23)C1 (racemic) , if possible.
1 to 4.99 µM

Also O=C(Nc1ccccn1)c1nc(O)c2scc(-c3ccccn3)c2n1 , if possible.
> 10 µM

Also CO[C@H]1CC[C@@H](Nc2nc(C(=O)N3CCCC3)nc3sccc23)C1 (racemic) , if possible.
> 10 µM

Also Oc1nc(-c2ccccn2)nc2c(-c3ncccc3F)csc12 , if possible.
1 to 4.99 µM

Also Cc1c(-c2ccn(C(C)C)n2)sc2nc(-c3nccn3C)nc(NCc3ncc[nH]3)c12 , if possible.
5 to 10 µM

Also CO[C@H]1CC[C@@H](Nc2nc(C(N)=O)nc3sc(-c4ccn(C(C)C)n4)cc23)C1 (racemic) , if possible.
> 10 µM

Also Cc1c(-c2ccn(C(C)C)n2)sc2nc(-c3nccn3C)nc(NC[C@@H]3CCC(=O)N3)c12 , if possible.
> 10 µM

Also Cc1c(-c2ccn(C(C)C)n2)sc2nc(-c3nccn3C)nc(NCCc3ncc[nH]3)c12 , if possible.
5 to 10 µM

Also COc1cc(Nc2nc(-c3nccn3C)nc3sc(-c4ccn(C(C)C)n4)c(C)c23)ncn1 , if possible.
< 1 µM

Also CO[C@H]1C[C@H](CNc2nc(-c3nccn3C)nc3sc(-c4ccn(C(C)C)n4)c(C)c23)C1 , if possible.
< 1 µM

Also COCCn1ccnc1-c1nc(N[C@@H]2CC[C@H](OC)C2)c2ccsc2n1 (racemic) , if possible.
> 10 µM
